test system: RXRa homodimer (NR concentration 180 nM); experiment: PBM binding z-score (relative to random genomic background probes); higher = stronger binding; sequences stand for … in GC…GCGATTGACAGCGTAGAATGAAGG
PBM binding z-score for assorted sequences
measurement_kind: PBM binding z-score

| sequence_entry | recorded_number |
| --- | --- |
| CAAACTAGGGCAAGAGGTCAAAGTCCGCTTCCCG | 6.17 |
| ACTAGCAGGCCAAGTTTGGGTCATTCAAACAAAG | 0.803 |
| TCATATAGGTAAATAGGTGAAAGTCCGTAAGTTA | 1.62 |
| AGAATGAGGTTACCAAAGATCAGGGAAACGCTTG | 2.57 |
| ATCTCTAGTTAAAAGTTCAGTGAATCCCGAGGAT | 0.844 |
| GCATATAGGTAATACAAGTTGAAAGTCCGATTGT | 0.404 |
| GGAACGAGGGCATTCGAGTTGATAACATGGCGAT | 1.08 |
| CGTCCAAGGTCAGAGAGTTCAGTGAATGCCGAGT | 4.59 |
| TGAATGAGGTTAAAGATCAGGGAGCGTGGCGTCG | 3.86 |
| CGTCCAAGGTCAAACGTCAGTGAAGAGATGACGG | 6.29 |
| CCTACTAGGTCAATGGTCAGCTAAAGCAGCTCGC | 2.26 |
| TCTGCTAGGTCAAAGATGGTCAGCTAATCTGCTA | 2.65 |
| TTACCAAGGTGCAGGTCGTTGATCCCTCTGTAGA | 0.481 |
| ACTATTAGTTGAGACGAGGGCAAGCGATAGGTTG | 0.484 |
| ATCTCCAGGTAACCAAGTTCAGTGAATGCCGAAC | 0.486 |
| TCTTGTAGATCAAACGTTAAGAAAGCCGAAGCCT | 0.138 |
| ACTAGTTGGTCAGCTGATGTCACACACAATTCGG | 0.485 |
| CCTACTGGGCCATTCAGAGGTCATTGGTCATATG | 3.6 |
| GCTTACGGGTCAAAGGTGATAGCATGAATAGAAT | 7.79 |
| ACTAGTTGGTCAGCTGAGGACACACACAATTCGG | 0.282 |
| ACTAGCAGGCCAAGTTTTGGTCACTCAAACAAAG | -0.0235 |
| CAAACTAGGTCAAACGTCAAAGTCGAGCCAACCA | 4.16 |
| ATCTCTAGGTAAAGATAGTACAGTGAATGCAAAT | 0.301 |
| GATACAGGGTCAAGGCCAGAGAACGCGTATTGAT | 6.11 |
| ATATGTAGGTTAGCGGGTCATTCAGTTTGCGCAT | 2.77 |
| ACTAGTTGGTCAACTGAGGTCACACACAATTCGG | 4.58 |

###

system: RXRa homodimer (NR concentration 180 nM); assay: PBM binding z-score (relative to random genomic background probes); higher = stronger binding; sequences stand for … in GC…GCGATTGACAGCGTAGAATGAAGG

| sequence_entry | experimental_system | PBM binding z-score |
| --- | --- | --- |
| CCTCCAAGGTCAAGGTCAGTGAAAGAGACTCGAA | RXRa homodimer (NR concentration 180 nM) | 6.09 |
| ACTATTAGTTGACTGAGGGCAACCGATACGACGC | RXRa homodimer (NR concentration 180 nM) | 0.572 |
| ACTAGCAGGCCAAGTGTCACTCAAGATTAGTCCG | RXRa homodimer (NR concentration 180 nM) | 0.215 |
| TCTTGTAGATCCATAGAGGTTAAGAAAGTGCGCT | RXRa homodimer (NR concentration 180 nM) | 1.1 |
| GCTCGGTGGACAAGGTCAGAGCTTTGTCCGTAGA | RXRa homodimer (NR concentration 180 nM) | 1.96 |
| ACTATTAGGTGAGACGAGGGCAACCGATAGGTTG | RXRa homodimer (NR concentration 180 nM) | 0.97 |
| AGACTGAGGTTACCAAAGATCAGGGAAACGCTTG | RXRa homodimer (NR concentration 180 nM) | 2.5 |
| CAAACTACGTCACGAAAGGTCAAAGTCGAATGAC | RXRa homodimer (NR concentration 180 nM) | 6.68 |
| ATCTCTAAGTAACCAAGTTCAGTGAATGCCGAAC | RXRa homodimer (NR concentration 180 nM) | 0.443 |
| CCAACTAGGTCACGAAAGGTCAAAGTCGAATGAC | RXRa homodimer (NR concentration 180 nM) | 8.76 |
| TCTAGTTGGTCAAAGGTCACACAGTCGAAATGCG | RXRa homodimer (NR concentration 180 nM) | 8.22 |
| GTACCAAGGTGAAAAGGTCGTTGATGAGTAGGCG | RXRa homodimer (NR concentration 180 nM) | 3.57 |
| ACTCCGAGGACAAAGGTCAGAGCTACGCCAGTGA | RXRa homodimer (NR concentration 180 nM) | 6.11 |
| ATCTCTAGGTAAAGTTAAGTGAAAGATCGATAGA | RXRa homodimer (NR concentration 180 nM) | 0.171 |
| CTCGAAAGGTCTTGCTCAGGTGAGTATACCAAAC | RXRa homodimer (NR concentration 180 nM) | 0.775 |
| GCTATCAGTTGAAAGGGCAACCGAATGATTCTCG | RXRa homodimer (NR concentration 180 nM) | 1.26 |
| ATCTCTAGGTAACAAGTACAGTGAAAGAGAGGAC | RXRa homodimer (NR concentration 180 nM) | 0.349 |
| TCTCAGAGGACACGAAAGGTCAGAGCTCGACATC | RXRa homodimer (NR concentration 180 nM) | 4.47 |
| ACTATTAGTTGACTTAGGGCAACCGGTACGACGC | RXRa homodimer (NR concentration 180 nM) | 0.446 |
| ACTCTGAGGACAAAGGTCAGAGCTACGCCAGTGA | RXRa homodimer (NR concentration 180 nM) | 5.18 |
| TCTTGTAGATCAATCGAGGTTAAGAAAGTGCGCT | RXRa homodimer (NR concentration 180 nM) | 1.01 |
| AGTCCAAGTTCATCTAGGTAACGTAAGATATGCT | RXRa homodimer (NR concentration 180 nM) | 2.26 |
| AGTCAAAGTTCACAAGGTAACGTAAGATTCAGCT | RXRa homodimer (NR concentration 180 nM) | 4.74 |
| CAAACTATGTCAAGGTCAAAGTCGGTTTGTGCCA | RXRa homodimer (NR concentration 180 nM) | 4.98 |
| TCTATTTGTTGAAGGGCAACCGACGAGTCCGTTT | RXRa homodimer (NR concentration 180 nM) | 0.578 |
| ATCTCTAGGTAACCACGTTCAGTGAATGCCGAAC | RXRa homodimer (NR concentration 180 nM) | 0.112 |
| AATACAGTGTCATCGTAGGCCAGAGTACGCACAG | RXRa homodimer (NR concentration 180 nM) | 0.84 |
| TCGCCTAGGTCATTCAGGGGCCAGTATAGAAAGC | RXRa homodimer (NR concentration 180 nM) | 2.95 |
| CATACTAGGTCACCGGAAGGTCAAAGTCCGCATG | RXRa homodimer (NR concentration 180 nM) | 6.33 |
| CGTCCAAGGTGAAAGGTCAGTGAAGAGATGACGG | RXRa homodimer (NR concentration 180 nM) | 7.85 |
| CCGAGTAGGTTATGGGGCACTCAGGCAACGGTGA | RXRa homodimer (NR concentration 180 nM) | 0.805 |
| CCTTACGGGTCACGCCAGGTTATAGCATCGGAGT | RXRa homodimer (NR concentration 180 nM) | 6.22 |
| TCTAGCAGGCCAGAGGGGCACTCAAGAGGTACGG | RXRa homodimer (NR concentration 180 nM) | 0.357 |
| CGAACGAGGGCATGAGTTGATAGGAAATGCCGAT | RXRa homodimer (NR concentration 180 nM) | 0.923 |
| TAGCCTGGGTCATTGGGCCAGTATAGTACGCATC | RXRa homodimer (NR concentration 180 nM) | 3.04 |
| CCGAGTAGGTTATGGGGGATTCAGGCAACGGTGA | RXRa homodimer (NR concentration 180 nM) | 0.959 |
| TCTTGTAGATCAACAGGAGGTTAGGAAAGATCGA | RXRa homodimer (NR concentration 180 nM) | 0.348 |
| TTACCAATGTGAAAGGTCGTTGATGCACGCCTTG | RXRa homodimer (NR concentration 180 nM) | 3.08 |
| AATACAGGGTCACTAGGCCAGTGTAGGTACGAAT | RXRa homodimer (NR concentration 180 nM) | 6.04 |
| AGACAAAGTTCACTAGGTAACGTAAGATTCAGCT | RXRa homodimer (NR concentration 180 nM) | 3.69 |
| GCGACTAGGGCATCAGCAGGTTACCATAACTTAA | RXRa homodimer (NR concentration 180 nM) | 0.47 |
| CGTCCAAGGTCAGAGAGGTCCGTGAATGCCGAGT | RXRa homodimer (NR concentration 180 nM) | 3.48 |
| GTGCCAAGGTGAATAGGTCGTTGATGAGTAGGCG | RXRa homodimer (NR concentration 180 nM) | 1.55 |
| CCGTCTGGGGCAAAGGTTACCATACTCAGTACGA | RXRa homodimer (NR concentration 180 nM) | 3.51 |
| GCAAGCAGGCCATTTGGGTCACTCAATGACGGGC | RXRa homodimer (NR concentration 180 nM) | 0.769 |
| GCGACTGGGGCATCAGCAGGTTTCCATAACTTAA | RXRa homodimer (NR concentration 180 nM) | -0.0783 |
| CTCGAAAGGTCGGGTGAGGTGAGTATACGGATAA | RXRa homodimer (NR concentration 180 nM) | 3.05 |
| TCATATAGGTAACCAGGTGAAAGTCCGTAAGTTA | RXRa homodimer (NR concentration 180 nM) | 1.25 |
| CGTCCAAGGTCAGAGAGGTCAGTGAATGCCGAGT | RXRa homodimer (NR concentration 180 nM) | 5.73 |
| AGAATGAGGTTATTAAGATCAGGCAATTGCGGTC | RXRa homodimer (NR concentration 180 nM) | 1.65 |
| GATACAGGGGCAGCTAGAGGCCAGAGTATGGAAA | RXRa homodimer (NR concentration 180 nM) | 0.387 |
